# ASSAY_NOTES: Cell viability assay (CellTiter-Glo) on MOLM-13
# Format: cell-based
# CONDITION_DETAILS: human, MOLM-13 cells, 10 µM, average of two biological replicates
viability at 72 h, 10 µM strictly under 90% means Y; at 90% or over means N.

COMPOUND: CC1(C)CCN(Cc2cc(F)c(N3CC(=O)NC4(CCN(c5cc(NCc6cn(CCCCCCCCC(=O)Nc7cccc8c7CN(C7CCC(=O)NC7=O)C8=O)nn6)ncn5)CC4)C3)cc2F)CC1 (stereo not shown)
DISCRETE_LABEL: N
//
COMPOUND: CC1(C)CCN(Cc2cc(F)c(N3CC(=O)NC4(CCN(c5cc(NCc6ccc(N7CCN(c8cccc9c8C(=O)N(C8CCC(=O)NC8=O)C9=O)CC7)cc6)ncn5)CC4)C3)cc2F)CC1 (stereo not shown)
DISCRETE_LABEL: N
//
COMPOUND: CC1(C)CCN(Cc2cc(F)c(N3CC(=O)NC4(CCN(c5cc(NCc6cccc(CNC(=O)CCCCCCCCCCn7cc(CNc8cccc9c8C(=O)N(C8CCC(=O)NC8=O)C9=O)nn7)c6)ncn5)CC4)C3)cc2F)CC1 (stereo not shown)
DISCRETE_LABEL: Y

---

Reported viability at 72 h, 0.6 µM values follow for various compounds
# ASSAY_NOTES: Cell viability assay (CellTiter-Glo) on MOLM-13
# Assay type: cell-based
# CONDITION_DETAILS: human, MOLM-13 cells, 0.6 µM, average of two biological replicates

COMPOUND: CC1(C)CCN(Cc2cc(F)c(N3CC(=O)NC4(CCN(c5cc(NCC6CCN(C(=O)CCCCCCCNc7cccc8c7C(=O)N(C7CCC(=O)NC7=O)C8=O)CC6)ncn5)CC4)C3)cc2F)CC1 (stereo not shown)
viability at 72 h, 0.6 µM: 102%

COMPOUND: CC1(C)CCN(Cc2cc(F)c(N3CC(=O)NC4(CCN(c5cc(NCCN6CCN(C(=O)CCCNc7cccc8c7C(=O)N(C7CCC(=O)NC7=O)C8=O)CC6)ncn5)CC4)C3)cc2F)CC1 (stereo not shown)
viability at 72 h, 0.6 µM: 93.7%

COMPOUND: CC1(C)CCN(Cc2cc(F)c(N3CC(=O)NC4(CCN(c5cc(NCc6ccc(N7CCN(c8cccc9c8C(=O)N(C8CCC(=O)NC8=O)C9=O)CC7)cc6)ncn5)CC4)C3)cc2F)CC1 (stereo not shown)
viability at 72 h, 0.6 µM: 95.8%

COMPOUND: CC1(C)CCN(Cc2cc(F)c(N3CC(=O)NC4(CCN(c5cc(NCC6CCN(C(=O)CCCCCNc7cccc8c7C(=O)N(C7CCC(=O)NC7=O)C8=O)CC6)ncn5)CC4)C3)cc2F)CC1 (stereo not shown)
viability at 72 h, 0.6 µM: 102%

---

# ASSAY_NOTES: Cell viability assay (CellTiter-Glo) on MOLM-13
# Assay type: cell-based
# CONDITION_DETAILS: human, MOLM-13 cells, 10 µM, average of two biological replicates
Reported viability at 72 h, 10 µM values follow for various compounds
ENDPOINT: viability at 72 h, 10 µM

COMPOUND: CC1(C)CCN(Cc2cc(F)c(N3CC(=O)NC4(CCN(c5cc(NCCN6CCN(C(=O)CCCNc7cccc8c7C(=O)N(C7CCC(=O)NC7=O)C8=O)CC6)ncn5)CC4)C3)cc2F)CC1 (stereo not shown)
EXPERIMENTAL_VALUE: 87.4%
//
COMPOUND: CC1(C)CCN(Cc2cc(F)c(N3CC(=O)NC4(CCN(c5cc(NCCN6CCN(c7cnc(N8CCN(C(=O)CCCNc9cccc%10c9C(=O)N(C9CCC(=O)NC9=O)C%10=O)CC8)nc7)CC6)ncn5)CC4)C3)cc2F)CC1 (stereo not shown)
EXPERIMENTAL_VALUE: 89.6%
//
COMPOUND: CC1(C)CCN(Cc2cc(F)c(N3CC(=O)NC4(CCN(c5cc(NCc6cccc(CNC(=O)CCCCCCCCn7cc(CNc8cccc9c8C(=O)N(C8CCC(=O)NC8=O)C9=O)nn7)c6)ncn5)CC4)C3)cc2F)CC1 (stereo not shown)
EXPERIMENTAL_VALUE: 87.6%
//
COMPOUND: CC1(C)CCN(Cc2cc(F)c(N3CC(=O)NC4(CCN(c5cc(NCc6cn(CCCCCCCCCCC(=O)Nc7cccc8c7CN(C7CCC(=O)NC7=O)C8=O)nn6)ncn5)CC4)C3)cc2F)CC1 (stereo not shown)
EXPERIMENTAL_VALUE: 90.9%
